# EXPERIMENT_DESCRIPTION: Therapeutic index, ratio of MHC for human RBC to geometric mean of peptide MIC for Escherichia coli UB1005
# Format: toxicity
# CONDITIONS: human red blood cells (RBC), read-out: TI
Where a SMILES comes first, the peptide text is derived from it.
VALUE_KIND: selectivity ratio
One number for each entry.

Worked cases, selectivity ratio given:
Request: Would you kindly share the measured selectivity ratio for CC[C@H](C)[C@H](N)C(=O)N[C@H](C(=O)N[C@@H](CS)C(=O)N[C@@H](CCCNC(=N)N)C(=O)N[C@@H](CCCCN)C(=O)N1CCC[C@H]1C(=O)N[C@H](C(=O)N[C@H](C(=O)N[C@@H](CS)C(=O)N[C@@H](CCCNC(=N)N)C(=O)N[C@@H](CCCCN)C(=O)N1CCC[C@H]1C(=O)N[C@H](C(=O)N[C@H](C(N)=O)[C@@H](C)CC)[C@@H](C)CC)[C@@H](C)CC)[C@@H](C)CC)[C@@H](C)CC (H-IICRKPIICRKPII-NH2) ?
Result: 4

Request: Would you kindly share the measured selectivity ratio for CC(C)[C@H](N)C(=O)N[C@@H](CS)C(=O)N[C@@H](CCCNC(=N)N)C(=O)N[C@@H](CCCCN)C(=O)N1CCC[C@H]1C(=O)N[C@H](C(=O)N[C@H](C(=O)N[C@@H](CS)C(=O)N[C@@H](CCCNC(=N)N)C(=O)N[C@@H](CCCCN)C(=O)N1CCC[C@H]1C(=O)N[C@H](C(N)=O)C(C)C)C(C)C)C(C)C (H-VCRKPVVCRKPV-NH2) ?
Result: 2

Here's the next entry for you.
Request: Would you kindly share the measured selectivity ratio for CC[C@H](C)[C@H](N)C(=O)N[C@H](C(=O)N[C@H](C(=O)N[C@@H](CS)C(=O)N[C@@H](CCCNC(=N)N)C(=O)N[C@@H](CCCCN)C(=O)N1CCC[C@H]1C(=O)N[C@H](C(=O)N[C@H](C(=O)N[C@@H](CS)C(=O)N[C@@H](CCCNC(=N)N)C(=O)N[C@@H](CCCCN)C(=O)N1CCC[C@H]1C(=O)N[C@H](C(=O)N[C@H](C(=O)N[C@H](C(N)=O)[C@@H](C)CC)[C@@H](C)CC)[C@@H](C)CC)[C@@H](C)CC)[C@@H](C)CC)[C@@H](C)CC)[C@@H](C)CC (H-IIICRKPIICRKPIII-NH2) ?
Result: 6.35
